This collection of values is drawn from patent US20220204476A1.

# target.desc: SARS-CoV-2 3CLP (Severe acute respiratory syndrome coronavirus 2)
# measurement.description: SARS-CoV-2 3CLP inhibition, FRET-based cleavage assay
# Format: biochemical
# test.context: 3CL Protease IC50, 80 nM SARS-CoV-2 3CLP, 100 μM substrate, 37° C., 10 min incubation, pH 7.8
Please go through the items and note down their IC50.
Answers are plain numbers, in µM.

**Query** Entry "COc1cccc2[nH]c(C(=O)N[C@@H](CC(C)C)C(=O)N[C@@H](C[C@@H]3CCCNC3=O)C(=O)COC(=O)c3c(C)cc(C)nc3C)cc12" , system SARS-CoV-2 3CLP (Severe acute respiratory syndrome coronavirus 2): what IC50 was measured?
**Result** 0.036

**Query** Entry "COc1cccc2[nH]c(C(=O)N[C@@H](CC(C)C)C(=O)N[C@@H](C[C@@H]3CCCNC3=O)C(=O)COC(=O)C3(C)OCCCO3)cc12" , system SARS-CoV-2 3CLP (Severe acute respiratory syndrome coronavirus 2): what IC50 was measured?
**Result** 0.013

# input for lookup
**Query** Entry "COc1cccc2[nH]c(C(=O)N[C@@H](CC(C)C)C(=O)N[C@@H](C[C@@H]3CCCNC3=O)C(=O)COC(=O)c3ccccn3)cc12" , system SARS-CoV-2 3CLP (Severe acute respiratory syndrome coronavirus 2): what IC50 was measured?
**Result** 0.13
